compounds and their reported Current after wash-off (%)
Molecular target: rNaV1.4 expressed in CHO cells (Rattus norvegicus, UniProt P15390)
Construct: expressed in transfected cells; host or cells: CHO cells
Sequence (P15390 whole entry): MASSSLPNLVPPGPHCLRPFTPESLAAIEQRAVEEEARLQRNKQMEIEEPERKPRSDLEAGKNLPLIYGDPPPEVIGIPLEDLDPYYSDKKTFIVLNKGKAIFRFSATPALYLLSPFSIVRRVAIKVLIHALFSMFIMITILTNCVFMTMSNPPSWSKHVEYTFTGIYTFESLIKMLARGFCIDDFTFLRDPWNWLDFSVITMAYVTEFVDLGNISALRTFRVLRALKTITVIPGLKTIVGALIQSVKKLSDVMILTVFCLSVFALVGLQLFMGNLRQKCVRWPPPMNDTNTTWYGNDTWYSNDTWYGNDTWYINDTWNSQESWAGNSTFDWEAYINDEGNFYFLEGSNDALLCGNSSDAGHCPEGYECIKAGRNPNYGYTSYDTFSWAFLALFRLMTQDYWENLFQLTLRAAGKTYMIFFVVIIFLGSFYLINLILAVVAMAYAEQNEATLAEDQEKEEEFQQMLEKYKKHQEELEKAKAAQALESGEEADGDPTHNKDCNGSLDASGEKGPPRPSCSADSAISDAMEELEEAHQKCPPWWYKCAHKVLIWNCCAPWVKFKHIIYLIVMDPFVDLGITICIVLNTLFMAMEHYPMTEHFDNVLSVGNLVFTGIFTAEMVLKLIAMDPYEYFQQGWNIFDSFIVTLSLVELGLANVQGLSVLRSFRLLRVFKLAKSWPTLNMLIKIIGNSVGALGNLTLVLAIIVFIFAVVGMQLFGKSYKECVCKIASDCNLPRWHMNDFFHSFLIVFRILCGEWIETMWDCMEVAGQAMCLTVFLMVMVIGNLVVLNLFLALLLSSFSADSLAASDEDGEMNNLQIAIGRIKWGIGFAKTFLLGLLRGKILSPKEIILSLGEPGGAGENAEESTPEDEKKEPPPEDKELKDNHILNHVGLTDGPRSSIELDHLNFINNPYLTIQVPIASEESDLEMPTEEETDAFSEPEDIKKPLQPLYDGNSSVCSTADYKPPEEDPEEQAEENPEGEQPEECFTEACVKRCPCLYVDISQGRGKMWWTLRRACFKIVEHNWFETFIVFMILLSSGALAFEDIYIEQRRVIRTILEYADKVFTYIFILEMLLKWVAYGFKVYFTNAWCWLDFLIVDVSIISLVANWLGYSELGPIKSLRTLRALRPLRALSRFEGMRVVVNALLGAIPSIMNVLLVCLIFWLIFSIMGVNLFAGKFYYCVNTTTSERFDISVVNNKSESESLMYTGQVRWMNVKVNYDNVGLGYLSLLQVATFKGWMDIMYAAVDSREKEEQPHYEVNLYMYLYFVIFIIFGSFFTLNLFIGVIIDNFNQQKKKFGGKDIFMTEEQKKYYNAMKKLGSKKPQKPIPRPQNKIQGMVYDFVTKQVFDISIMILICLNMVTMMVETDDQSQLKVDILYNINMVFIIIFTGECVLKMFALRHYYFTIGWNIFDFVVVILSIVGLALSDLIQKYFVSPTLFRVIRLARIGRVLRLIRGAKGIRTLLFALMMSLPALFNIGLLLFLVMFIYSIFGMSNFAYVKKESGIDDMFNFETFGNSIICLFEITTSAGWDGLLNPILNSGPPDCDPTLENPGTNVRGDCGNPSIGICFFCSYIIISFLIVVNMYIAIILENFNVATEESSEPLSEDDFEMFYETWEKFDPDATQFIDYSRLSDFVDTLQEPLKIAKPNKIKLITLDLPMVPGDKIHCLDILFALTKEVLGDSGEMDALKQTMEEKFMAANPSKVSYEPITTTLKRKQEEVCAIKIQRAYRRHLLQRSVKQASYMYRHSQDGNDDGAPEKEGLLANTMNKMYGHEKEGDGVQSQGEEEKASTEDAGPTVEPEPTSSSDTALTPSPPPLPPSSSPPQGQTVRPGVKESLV
Format: cell-based
Conditions: after wash-off of 20 μM
Protocol: […] […] It is noteworthy that little or no increase in current was observed during wash off when no depolarizing pulses were applied and peak current was measured as a function of time. Since the molecules bind to the open-state of the Nav channel their release also requires activation pulses. In typical experiments, buffered external solution was perfused and a pulse train sequence was applied to the patch-clamp until the current reached a steady-state for at least two minutes.
assay metric: Current after wash-off (%)

- compound: "CCN1CC2(COC)C3C(OC)C4C1C3(C1C[C@@]3(O)[C@H](OC(=O)c5ccccc5)[C@@H]1[C@]4(OC(C)=O)[C@@H](O)[C@@H]3OC)[C@@H](OC)C[C@H]2O (stereo partly shown)"
  assay metric: "Current after wash-off (%)"
  endpoint result: 94
- compound: "CCN1CC2(COC)C3[C@H](OC)C4C1C3(C1C[C@@]3(O)[C@H](OC(=O)c5cc6ccccc6oc5=O)C1[C@]4(OC(C)=O)[C@@H](O)[C@@H]3OC)[C@@H](OC)C[C@H]2O (stereo partly shown)"
  assay metric: "Current after wash-off (%)"
  endpoint result: 83
- compound: "CCN1CC2(COC)C3C(OC)C4C1C3(C1C[C@@]3(O)[C@H](OC(=O)c5ccc6ccccc6c5)[C@@H]1[C@]4(OC(C)=O)[C@@H](O)[C@@H]3OC)[C@@H](OC)C[C@H]2O (stereo partly shown)"
  assay metric: "Current after wash-off (%)"
  endpoint result: 4
- compound: "CCN1CC2(COC)C3C(OC)C4C1C3(C1C[C@@]3(O)[C@H](OC(=O)C5CCCCC5)[C@@H]1[C@]4(OC(C)=O)[C@@H](O)[C@@H]3OC)[C@@H](OC)C[C@H]2O (stereo partly shown)"
  assay metric: "Current after wash-off (%)"
  endpoint result: 79
